Data provenance is PubChem BioAssay.

- System: Lefty1
- Protocol Description: Lefty1 binders on small-molecule microarrays, primary screen, biochemical, small-molecule microarray, 635/667 nm fluorescence (AID 1139)
- Setup Conditions: small-molecule microarray binding, fluorescence 635/667; higher = more signal
Value Kind: composite z-score
Answers are plain numbers.

>>> recorded_measurement("CN(C)C(=O)[C@@]1(Cc2ccccc2N=[N+]=[N-])N=C(c2ccc(OCCCO)cc2)O[C@H]1c1ccccc1")
-0.442

Below is a list of molecules. For each, state its recorded composite z-score.
1. CN1C(=O)[C@@]2(Cc3ccccc3)N=C(c3ccc(OCCCO)cc3)O[C@H]2c2ccccc21
2. Cc1c(NC(=O)/C(C#N)=C/c2ccccc2Cl)c(=O)n(-c2ccccc2)n1C
3. O=C1O[C@H](c2ccccc2)[C@H](c2ccccc2)N2[C@H]1[C@@H](C(=O)Nc1nc3ccccc3s1)[C@]1(C(=O)Nc3ccc(C#CC4=CCCCC4)cc31)[C@H]2c1ccc(O)cc1

Marked response:
1. 0.941
2. -0.0835
3. 0.844

---

Provide the reported composite z-score of each item.
- Protocol Description: binders of probe aFGF10 on microarray, primary screen, stem cell growth factor project, biochemical, small-molecule microarray, fluorescence 635/667 (AID 1071);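 also: score merges 667 nm spot intensity and signal to noise from triplicate slides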
- Setup Conditions: higher = more signal
Numbers only.

Answered examples (2):
>>> recorded_measurement("Cc1ccc(S[C@]2(C(=O)NC(C)C)CC(=O)N(Cc3ccccc3Cl)[C@@H]2c2ccc(CO)cc2)cc1")
-0.519
>>> recorded_measurement("O=C(CS)NCCCCCNC(=O)[C@@H]1C[C@@H]2C(=O)N[C@@H](Cc3ccccc3)C(=O)N2[C@@H]1c1cccc(OCCO)c1")
0.325

List composite z-score for every entry below, keeping the order given.
1. COCCOC(=O)N1C(=O)[C@@]2(c3cc(C#CC4(O)CCCCCC4)ccc31)[C@H](c1ccc(OCCO)cc1)N1[C@H](c3ccccc3)[C@H](c3ccccc3)OC(=O)[C@H]1[C@@H]2C(=O)Nc1nc2ccccc2s1
2. O=C1[C@@]23C=C(Br)[C@H](C[C@@H]2COC3)[C@@]12CO2
3. COc1cc(C(O)C2C=CC3C(=O)N(Cc4ccccc4)C(=O)C3N2n2cnnc2)cc(OC)c1OC (stereo not drawn)
4. Cc1ccc(S[C@]2(C(=O)NCC(C)C)CC(=O)N(C3Cc4ccccc4C3)[C@@H]2c2ccc(CO)cc2I)cc1

Marked response:
[0.874, 0.38, 0.537, 0.166]

Hey, can you go through the list below and give me composite z-score for every item?
1. COc1ccc(C(O)C2C=CC3C(=O)N(c4ccccc4)C(=O)C3N2Nc2ccc(C(C)C)cc2)c2ccccc12 (stereo not drawn)
2. O=c1cccc(-c2ccc(F)cc2)o1

Marked response:
[0.7, 0.255]

---

- Protocol Description: FRG1 promoter luciferase signal modulators, primary screen, FRG1 inhibition for FSHD, cell-based, C2C12 myotubes, firefly/Renilla luciferase, luminescence (AID 1084)
- Setup Conditions: higher = more signal, called active from +8 up or from −8 down
Value Kind: z-score
One number for each entry.

// below: answered compounds
>>> recorded_measurement("CC(=O)N1CC(C(O)C2C=CC3C(=O)NC(=O)C3N2Nc2ccc(Cl)cc2Cl)c2ccccc21 (stereo not given)")
0.425
>>> recorded_measurement("O=C1[C@@]23C=C(Br)[C@H](C[C@@H]2COC3)[C@@]12CO2")
-0.214

Respectfully, I request z-score for each entry included below.
1. COC(=O)[C@@]1(Cc2ccc(F)cc2)[C@H]2c3cc(C(=O)N4CCCC4)n(CC4CC4)c3C[C@H]2CN1C(=O)c1ccccc1
2. COCCOC(=O)N1C(=O)[C@@]2(c3cc(C#CCCO)ccc31)[C@H](c1ccccc1OCCO)N1[C@H](c3ccccc3)[C@H](c3ccccc3)OC(=O)[C@H]1[C@@H]2C(=O)N1CCCCCCC1

Marked response:
1: 0.108; 2: -3.3

Answer for every listed entry: what is its z-score? The entries follow.
1. COCCOC(=O)N1C(=O)[C@@]2(c3cc(C#CC4(O)CCCCCC4)ccc31)[C@H](c1ccc(OCCO)cc1)N1[C@H](c3ccccc3)[C@H](c3ccccc3)OC(=O)[C@H]1[C@@H]2C(=O)Nc1nc2ccccc2s1
2. C=CCC(OC(C)=O)[C@@H]1[C@@H](N(Cc2cccc3ccccc23)C(=O)c2cccc3ccccc23)c2cc(OCCCO)ccc2N1C(=O)c1ccc2ccccc2c1 (stereo not given in full)
3. C=C(CCCC)C(=O)CC[C@H](OC(C)=O)c1ccc(OCCO)cc1

Marked response:
1: 3.79; 2: -2.36; 3: 0.38

Hi there! I need z-score for each item below, if you can.
1. COc1ccc([Si](C)(C)[C@@H]2[C@@H](CC(=O)N3Cc4ccccc4C[C@H]3CO)O[C@]3(C(=O)N(Cc4ccc(N5CCC5=O)cc4)c4ccccc43)[C@H]2C)cc1
2. C=CC1c2cc(O)c(OC)cc2CCN1Cc1ccc([N+](=O)[O-])o1 (stereo not given)
3. COCCOC(=O)N1C(=O)[C@@]2(c3cc(C#CCC(C(=O)OC)C(=O)OC)ccc31)[C@H](C(=O)NC[C@H](O)c1ccccc1)[C@H]1C(=O)O[C@H](c3ccccc3)[C@H](c3ccccc3)N1[C@@H]2c1ccc(O)cc1
4. COC(=O)[C@@]1(Cc2ccc(OC)cc2)[C@H]2c3cc(C(=O)N4CCCC4)n(Cc4cc(C)n(C)n4)c3C[C@H]2CN1C(=O)c1ccccc1

Marked response:
-1.63
-0.0303
-0.81
0.301

For each of the compounds below, state z-score.
1. CCOC(=O)C=Cc1cc(F)ccc1O
2. O=C(NCCN1CCOCC1)[C@@H]1c2ccccc2C(=O)N(Cc2ccccc2)[C@H]1c1ccc(CO)cc1

Marked response:
1. 0.808
2. -0.508

Parameters: items (list). Returns: z-score for each item.
1. O=C1C2C=CC(C(O)c3ccc(I)cc3)N(Nc3ccccc3)C2C(=O)N1c1ccccc1 (stereo not given)
2. CCOC(=O)C1=CC[C@@H](c2ccccc2)N(S(=O)(=O)c2ccc(C)cc2)[C@H]1C=Cc1ccccc1

Marked response:
-1.92
-3.49

---

- Protocol Description: small-molecule microarray binders of probe aLefty2, primary screen, biochemical, biotinylated probe, 635/667 nm fluorescence (AID 1094);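 also: score merges spot fluorescence near 667 nm with spot signal-to-noise ratio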
- Setup Conditions: higher = more signal
Value Kind: composite z-score
Numbers only.

Completed entries (count: 2):
>>> recorded_measurement("COCCOC(=O)N1C(=O)[C@@]2(c3cc(C#CC4=CCCCC4)ccc31)[C@H](c1ccc(O)cc1)N1[C@H](c3ccccc3)[C@H](c3ccccc3)OC(=O)[C@H]1[C@@H]2C(=O)NC[C@H](O)c1ccccc1")
-0.003
>>> recorded_measurement("[N-]=[N+]=NCc1ccccc1[C@@H]1OC(c2ccc(OCCCO)cc2)=N[C@]1(Cc1ccccc1N=[N+]=[N-])C(=O)N1CCCCC1")
0.0216

The value of composite z-score measured for the compound COc1cc(NN2C(C(O)c3ccccc3)C=CC3C(=O)N(C)C(=O)C32)cc(OC)c1OC (stereo not drawn) turned out to be 0.12

---

- System Name: E3 ubiquitin-protein ligase XIAP (Homo sapiens)
- Protocol Description: XIAP binders, primary screen, biophysical, small-molecule microarray, fluorescence 635 nm (AID 1181);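 also: score merges 667 nm emission and signal to noise over triplicate slides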
- Setup Conditions: small-molecule microarray binding, higher = more signal
Record form. Attribute: composite z-score. Fill in for each entry.
Numbers only.

>>> recorded_measurement("CN(C)C(=O)[C@@]1(Cc2ccccc2)COC(c2ccc(OCCCO)cc2)=N1")
0.521

Items follow; give composite z-score for each.
1. CC(C)CNC(=O)[C@@H]1c2ccccc2C(=O)N(C2CCCCC2)[C@H]1c1ccc(CO)cc1
2. COc1cc(NN2C(C(O)c3cc(OC)c(OC)c(OC)c3)C=CC3C(=O)N(c4ccccc4)C(=O)C32)cc(OC)c1OC (stereo unspecified)
3. CN1C(=O)C2C=CC(C(O)c3ccc(I)cc3)N(Nc3ccccc3)C2C1=O (stereo unspecified)
4. COc1ccc(C(=O)Nc2cccc(CN3C(=O)[C@@]4(O[C@@H](CC(=O)N(CCO)Cc5ccccc5)[C@H]([Si](C)(C)c5ccc(OC)cc5)[C@H]4C)c4ccccc43)c2)cc1
5. COC(=O)c1c2oc(c1C(=O)OC)C(=O)N1CCC[C@H]1Cn1nncc1CN(Cc1ccccc1)C(=O)N[C@H](CO)CC2
6. CN(C)CCCNC(=O)[C@@H]1c2ccccc2C(=O)N(C2CCCCC2)[C@H]1c1ccc(CO)cc1

Marked response:
-0.234
0.074
0.114
-0.0365
-0.0832
-0.157

// input: 4 molecules below; output: composite z-score for each
1. COCC1=C2[C@@H](CCc3ccccc3)OB(O)C[C@@H]2[C@@H]2C(=O)N(C)C(=O)[C@@H]2C1
2. CN1C(=O)[C@@]2(Cc3ccccc3)N=C(c3ccc(OCCCO)cc3)O[C@H]2c2ccccc21
3. C=CCN1C(=O)[C@@]2(O[C@@H](CCO)[C@H]([Si](C)(C)c3ccc(OC)cc3)[C@H]2C)c2cc(N3CCOC3=O)ccc21
4. COc1ccc([Si](C)(C)[C@@H]2[C@@H](CC(=O)N3Cc4ccccc4C[C@H]3CO)O[C@]3(C(=O)N(Cc4ccc(N5CCC5=O)cc4)c4ccccc43)[C@H]2C)cc1

Marked response:
[0.0512, 0.283, -0.0807, 0.177]

List composite z-score for every entry below, keeping the order given.
1. O=C1O[C@H](c2ccccc2)[C@H](c2ccccc2)N2[C@H]1[C@@H](C(=O)N1CCCCCCC1)[C@]1(C(=O)Nc3ccc(C#CC4(O)CCCCCC4)cc31)[C@H]2c1ccc(O)cc1
2. CCCNC(=O)[C@@]1(Sc2ccc(C)cc2)CC(=O)N(C2CCCCC2)[C@@H]1c1ccc(CO)cc1I
3. CO[C@H]1O[C@H](CO)[C@@H](OC(=O)Nc2ccc(C#N)cc2)[C@@H]2OC(=O)[C@H](Cc3cccc(Br)c3)C/C=C/C[C@@H](Cc3cccc(Br)c3)C(=O)O[C@@H]12
4. C=CCNC(=O)[C@H]1[C@@H]2C(=O)O[C@@H](c3ccccc3)[C@@H](c3ccccc3)N2[C@@H](c2ccc(OCCO)cc2)[C@]12C(=O)Nc1ccc(C#CCNC(N)=O)cc12

Marked response:
0.322
-0.321
-0.355
-0.163

The recorded composite z-score for entry `COC(=O)[C@@]1(Cc2ccccc2)[C@H]2c3cc(C(=O)N4CCCC4)n(CCSCCO)c3C[C@H]2CN1C(=O)c1ccccc1` equals 0.361
